# TESTED SYSTEM: Induced myeloid leukemia cell differentiation protein Mcl-1 (Homo sapiens, UniProt Q07820)
# Sequence (Q07820 whole entry): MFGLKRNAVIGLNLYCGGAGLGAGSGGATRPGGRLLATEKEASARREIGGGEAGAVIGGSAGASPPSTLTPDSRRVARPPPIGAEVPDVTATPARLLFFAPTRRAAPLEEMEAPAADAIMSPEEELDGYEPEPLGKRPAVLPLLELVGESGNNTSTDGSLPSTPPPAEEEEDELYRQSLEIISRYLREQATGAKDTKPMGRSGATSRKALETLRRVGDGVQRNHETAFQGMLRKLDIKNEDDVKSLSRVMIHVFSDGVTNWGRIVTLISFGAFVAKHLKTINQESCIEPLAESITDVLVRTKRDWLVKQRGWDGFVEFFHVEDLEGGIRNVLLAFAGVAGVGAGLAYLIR
# PROTOCOL DETAILS: Inhibition of FITC-labeled MCL1 (unknown origin) after 5 mins by fluorescence polarization assay
METRIC: pIC50
Please report pIC50 as the negative decimal logarithm of the molar concentration, giving only the number.

# pIC50 measured on Induced myeloid leukemia cell differentiation protein Mcl-1 (Homo sapiens, UniProt Q07820) for item Cc1cs/c(=N\C2CCCCC2)n1/N=C/c1ccc(O)c(O)c1O = 5.33

----------
# TESTED SYSTEM: Induced myeloid leukemia cell differentiation protein Mcl-1 (Homo sapiens, UniProt Q07820)
# PROTOCOL DETAILS: Binding affinity to His-tagged MCL1 (171 to 327) (unknown origin) expressed in Escherichia coli BL21(DE3) assessed as inhibition of MCL1-N-terminal biotin-labeled BIM BH3 peptide interaction after 30 mins by surface plasmon resonance analysis
METRIC: pIC50
Notebook: values listed as pIC50 are -log10 of the concentration (mol/L).

STRUCTURE STRING	TESTED SYSTEM	NUMERIC READOUT
O=C(O)CSc1cc(NS(=O)(=O)c2ccc(Oc3ccc(F)cc3)cc2)c2ccccc2c1O	Induced myeloid leukemia cell differentiation protein Mcl-1 (Homo sapiens, UniProt Q07820)	6.05
CCc1ccc(S(=O)(=O)Nc2cc(SCC(=O)O)c(O)c3ccccc23)cc1	Induced myeloid leukemia cell differentiation protein Mcl-1 (Homo sapiens, UniProt Q07820)	5.06
O=C(O)CSc1cc(NS(=O)(=O)c2ccc(-c3ccc(F)cc3F)cc2)c2ccccc2c1O	Induced myeloid leukemia cell differentiation protein Mcl-1 (Homo sapiens, UniProt Q07820)	6.04
O=C(O)CSc1cc(NS(=O)(=O)c2cccc(Br)c2)c2ccccc2c1O	Induced myeloid leukemia cell differentiation protein Mcl-1 (Homo sapiens, UniProt Q07820)	5.01

// pIC50 lookup, compound = COC(=O)CSc1cc(NS(=O)(=O)c2ccc(Br)cc2)c2ccccc2c1O , result: 4.83

pIC50 in this record for O=C(O)CCSc1cc(NS(=O)(=O)c2cccc3ccccc23)c2ccccc2c1O : 4.19

O=C(O)CSc1cc(NS(=O)(=O)c2ccc(Br)cc2)c2ccccc2c1O yielded pIC50 of 5.62

----------
# TESTED SYSTEM: Bcl-2-like protein 1 (Homo sapiens)
Hi! Just check whether Ki is below 20 µM. Below gives True, equal or above gives False.

STRUCTURE STRING	CLASSIFICATION
O=C(O)CSc1cc(NS(=O)(=O)c2ccc(Oc3ccccc3)cc2)c2ccccc2c1O	True
O=C(O)CSc1cc(NS(=O)(=O)c2ccc(-c3ccccc3)cc2)c2ccccc2c1O	True
O=C(O)CSc1cc(NS(=O)(=O)c2ccccc2-c2ccccc2)c2ccccc2c1O	False
O=C(O)CSc1cc(NS(=O)(=O)c2ccc(Br)cc2)c2ccccc2c1O	False

// next entry
Quick check: Ki of O=C(O)CSc1cc(NS(=O)(=O)c2cccc(-c3ccccc3)c2)c2ccccc2c1O under 20 µM? True

----------
# TESTED SYSTEM: Bcl-2-like protein 1 (Homo sapiens, UniProt Q07817)
# Sequence (Q07817 whole entry): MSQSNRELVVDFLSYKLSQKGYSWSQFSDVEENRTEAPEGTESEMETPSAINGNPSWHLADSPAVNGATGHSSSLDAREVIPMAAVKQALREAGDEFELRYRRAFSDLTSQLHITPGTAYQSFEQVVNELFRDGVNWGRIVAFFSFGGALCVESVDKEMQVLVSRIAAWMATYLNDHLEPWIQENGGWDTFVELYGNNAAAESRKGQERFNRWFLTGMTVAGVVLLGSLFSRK
pIC50: −log10 of the molar value.
METRIC: pIC50

Sample Cc1cs/c(=N\C2CCCCC2)n1/N=C/c1ccc(O)c(O)c1O , system: Bcl-2-like protein 1 (Homo sapiens, UniProt Q07817). Its pIC50 is < 4.30

----------
# TESTED SYSTEM: Apoptosis regulator Bcl-2 (Homo sapiens, UniProt P10415)
# Sequence (P10415 whole entry): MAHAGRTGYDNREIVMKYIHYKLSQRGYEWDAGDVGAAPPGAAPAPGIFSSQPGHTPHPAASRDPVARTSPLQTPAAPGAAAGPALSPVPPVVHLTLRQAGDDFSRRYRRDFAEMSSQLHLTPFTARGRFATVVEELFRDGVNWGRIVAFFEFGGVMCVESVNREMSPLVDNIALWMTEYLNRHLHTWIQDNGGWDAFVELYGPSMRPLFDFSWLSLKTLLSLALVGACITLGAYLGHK
# PROTOCOL DETAILS: Displacement of Flu-BID/FAM-BID from His-tagged BCL2 (1 to 202) (unknown origin) expressed in Escherichia coli BL21(DE3) after 3 hrs by fluorescence polarization assay
Examples of molecules with documented pKi follow.
pKi here: minus log base 10 of the concentration, concentration in moles per litre.

# count of solved cases: 5
STRUCTURE STRING	METRIC	NUMERIC READOUT
O=C(O)CSc1cc(NS(=O)(=O)c2ccc(Br)cc2)c2ccccc2c1O	pKi	4.62
O=C(O)CSc1cc(NS(=O)(=O)c2ccc(-c3ccc(Cl)cc3)cc2)c2ccccc2c1O	pKi	5.21
O=C(O)CSc1cc(NS(=O)(=O)c2ccc(Oc3ccccc3)cc2)c2ccccc2c1O	pKi	5.12
O=C(O)CSc1cc(NS(=O)(=O)c2cccc(-c3ccccc3)c2)c2ccccc2c1O	pKi	5.11
O=C(O)CSc1cc(NS(=O)(=O)c2ccccc2-c2ccccc2)c2ccccc2c1O	pKi	4.62

// next item, pKi requested
Measured pKi of O=C(O)CSc1cc(NS(=O)(=O)c2ccc(-c3ccccc3)cc2)c2ccccc2c1O : 5.05

----------
Listed molecules paired with reported pIC50
# TESTED SYSTEM: Induced myeloid leukemia cell differentiation protein Mcl-1 (Homo sapiens)
# PROTOCOL DETAILS: Binding affinity to His-tagged MCL1 (171 to 327) (unknown origin) expressed in Escherichia coli BL21(DE3) assessed as inhibition of MCL1-N-terminal biotin-labeled BIM BH3 peptide interaction after 30 mins by surface plasmon resonance analysis
Scale note: pIC50 = -log10(concentration in M).

Example molecules with recorded pIC50:
STRUCTURE STRING	pIC50
CC(C)(C)c1ccc(S(=O)(=O)Nc2cc(SCC(=O)O)c(O)c3ccccc23)cc1	5.06
O=C(O)CSc1cc(NS(=O)(=O)c2ccccc2Br)c2ccccc2c1O	5.21
O=C(O)CSc1cc(NS(=O)(=O)c2ccc(F)cc2)c2ccccc2c1O	5.30
NC(=O)CSc1cc(NS(=O)(=O)c2ccc(Br)cc2)c2ccccc2c1O	5.41
CC(C)c1ccc(S(=O)(=O)Nc2cc(SCC(=O)O)c(O)c3ccccc23)cc1	5.40
O=C(O)CSc1cc(NS(=O)(=O)c2ccc(-c3ccc(Cl)cc3)cc2)c2ccccc2c1O	6.06

Tested system Induced myeloid leukemia cell differentiation protein Mcl-1 (Homo sapiens); pIC50 recorded for O=C(O)CSc1cc(NC(=O)c2ccc(Br)cc2)c2ccccc2c1O was 4.35

The reported Induced myeloid leukemia cell differentiation protein Mcl-1 (Homo sapiens) pIC50 of O=C(O)CSc1cc(NS(=O)(=O)c2ccc(-c3ccccc3)cc2)c2ccccc2c1O is 5.69

// returns pIC50 for O=C(O)CSc1cc(NS(=O)(=O)Cc2ccc(Cl)cc2)c2ccccc2c1O with Induced myeloid leukemia cell differentiation protein Mcl-1 (Homo sapiens); value = 5.02

Response field pIC50 (Induced myeloid leukemia cell differentiation protein Mcl-1 (Homo sapiens)) for item O=C(O)CCSc1cc(NS(=O)(=O)c2ccc3ccccc3c2)c2ccccc2c1O : 5.30

Known value: Induced myeloid leukemia cell differentiation protein Mcl-1 (Homo sapiens) pIC50 of the molecule O=C(O)CSc1cc(NC(=O)Cc2ccccc2)c2ccccc2c1O equals 4.20

The molecule COc1ccc(S(=O)(=O)Nc2cc(SCC(=O)O)c(O)c3ccccc23)cc1 , when measured on Induced myeloid leukemia cell differentiation protein Mcl-1 (Homo sapiens), yielded pIC50 of 5.14

For O=S(=O)(Nc1cc(CCCO)c(O)c2ccccc12)c1ccc(Br)cc1 on Induced myeloid leukemia cell differentiation protein Mcl-1 (Homo sapiens), measured pIC50 was 4.96

Item O=S(=O)(Nc1cc(SCc2nnn[nH]2)c(O)c2ccccc12)c1ccc(Br)cc1 was tested on Induced myeloid leukemia cell differentiation protein Mcl-1 (Homo sapiens); the reported pIC50 is 5.82

Case O=S(=O)(Nc1cc(CCCCO)c(O)c2ccccc12)c1ccc(Br)cc1 , Induced myeloid leukemia cell differentiation protein Mcl-1 (Homo sapiens), pIC50 recorded as 4.71

Tested on Induced myeloid leukemia cell differentiation protein Mcl-1 (Homo sapiens), the item O=C(O)CSc1cc(CNS(=O)(=O)c2ccccc2)c2ccccc2c1O showed pIC50 equal to 4.52

pIC50 of CC(=O)Oc1c(SCC(=O)O)cc(NS(=O)(=O)c2ccc(Br)cc2)c2ccccc12 , assay on Induced myeloid leukemia cell differentiation protein Mcl-1 (Homo sapiens), is 4.57

O=C(O)CSc1cc(NS(=O)(=O)c2cc3ccccc3s2)c2ccccc2c1O tested on Induced myeloid leukemia cell differentiation protein Mcl-1 (Homo sapiens) gave pIC50: 5.12

Observed pIC50, Induced myeloid leukemia cell differentiation protein Mcl-1 (Homo sapiens), O=C(O)CSc1cc(NS(=O)(=O)c2ccccc2-c2ccccc2)c2ccccc2c1O : 5.00

The measured pIC50 that O=C(O)CSc1cc(NS(=O)(=O)N2CCN(c3ccccc3)CC2)c2ccccc2c1O showed for Induced myeloid leukemia cell differentiation protein Mcl-1 (Homo sapiens) is 4.79

----------
A collection of molecules and their measured pIC50
# TESTED SYSTEM: Induced myeloid leukemia cell differentiation protein Mcl-1 (Homo sapiens, UniProt Q07820)
# PROTOCOL DETAILS: Binding affinity to His-tagged MCL1 (171 to 327) (unknown origin) expressed in Escherichia coli BL21(DE3) assessed as inhibition of MCL1-N-terminal biotin-labeled BIM BH3 peptide interaction after 30 mins by surface plasmon resonance analysis
Value format note: pIC50 is -log10 of concentration (mol/L); just state the number.

STRUCTURE STRING	pIC50
O=C(O)CSc1cc(NS(=O)(=O)c2ccccc2)c2ccccc2c1O	4.90

Considering COc1c(SCC(=O)O)cc(NS(=O)(=O)c2cccc(-c3ccccc3)c2)c2ccccc12 , its pIC50 with Induced myeloid leukemia cell differentiation protein Mcl-1 (Homo sapiens, UniProt Q07820) was recorded as 4.23

Entry O=C(O)CSc1cc(NS(=O)(=O)c2cccc(-c3ccccc3)c2)c2ccccc2c1O , Induced myeloid leukemia cell differentiation protein Mcl-1 (Homo sapiens, UniProt Q07820) data, pIC50 value: 5.64

Simply: O=C(O)CSc1cc(NS(=O)(=O)c2ccc(Cl)cc2)c2ccccc2c1O , Induced myeloid leukemia cell differentiation protein Mcl-1 (Homo sapiens, UniProt Q07820), pIC50 = 5.57
